# measurement.protocol: self-splicing fitness, log relative to wild type (ln ratio); higher = more splicing; Tetrahymena group I intron in knt gene, E. coli kanamycin selection, DiMSum; sequences stand for … in CUCUCU…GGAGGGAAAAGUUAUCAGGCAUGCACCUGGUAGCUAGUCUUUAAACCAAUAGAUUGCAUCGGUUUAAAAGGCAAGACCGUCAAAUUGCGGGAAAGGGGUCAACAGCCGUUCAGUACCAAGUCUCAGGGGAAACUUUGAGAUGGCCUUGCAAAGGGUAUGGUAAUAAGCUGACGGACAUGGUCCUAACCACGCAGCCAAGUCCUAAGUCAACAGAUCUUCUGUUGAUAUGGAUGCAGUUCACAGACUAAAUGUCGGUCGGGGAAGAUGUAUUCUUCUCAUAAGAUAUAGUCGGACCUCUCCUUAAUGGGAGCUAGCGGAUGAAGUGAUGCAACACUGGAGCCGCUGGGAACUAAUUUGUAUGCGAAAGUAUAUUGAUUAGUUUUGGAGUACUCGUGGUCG;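 note: selection with 25 µg/mL kanamycin versus none on LB agar overnight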
# conditions: 37 °C
measured.parameter: self-splicing fitness (ln)
// no unit, no text: just the number

Worked examples, 3 sequences total:
GAGAAGCAAUAUUACGCAUU    -2.08
AUCAAGCAAUAUUACGCCCU    0.617
GAUCAGCAAUAUUACGCUUA    0.0926

Record summary for AACUAGCAAUAUUACGCAGG : reported self-splicing fitness (ln) = -1.66

Record summary for GGAGAGCAAUAUUACGUUCA : reported self-splicing fitness (ln) = -0.277

Record summary for GCGGAGCAAUAUUACGAGAU : reported self-splicing fitness (ln) = -1.94

Record summary for GGCGAGCAAUAUUACGUGUA : reported self-splicing fitness (ln) = -1.16

* * *

# measurement.protocol: self-splicing fitness, log relative to wild type (ln ratio); higher = more splicing; Tetrahymena group I intron in knt gene, E. coli kanamycin selection, DiMSum; sequences stand for … in CUCUCU…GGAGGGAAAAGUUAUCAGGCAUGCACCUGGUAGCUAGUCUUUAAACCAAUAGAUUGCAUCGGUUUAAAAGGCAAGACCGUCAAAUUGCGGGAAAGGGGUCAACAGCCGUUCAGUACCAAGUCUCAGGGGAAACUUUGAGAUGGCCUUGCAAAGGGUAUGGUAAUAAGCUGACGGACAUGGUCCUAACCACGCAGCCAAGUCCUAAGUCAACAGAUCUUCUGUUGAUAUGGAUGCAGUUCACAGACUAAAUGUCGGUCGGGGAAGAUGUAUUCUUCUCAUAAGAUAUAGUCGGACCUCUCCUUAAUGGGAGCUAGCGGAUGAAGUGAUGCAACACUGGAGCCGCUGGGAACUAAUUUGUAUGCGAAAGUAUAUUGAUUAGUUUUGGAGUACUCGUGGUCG
# conditions: 30 °C
measured.parameter: self-splicing fitness (ln)

Worked examples, 3 sequences total:
UCCUAGCAAUAUUACGCUUC    -3.48
CAUUAGCAAUAUUACGUUUA    -1.42
UACAAGCAAUAUUACGGGUC    -3.32

Record summary for UUGAAGCAAUAUUACGGGGU : reported self-splicing fitness (ln) = -2.29

Record summary for UCCCAGCAAUAUUACGUAUC : reported self-splicing fitness (ln) = -3.32

Record summary for UAAAAGCAAUAUUACGACCG : reported self-splicing fitness (ln) = 0.0682

Record summary for UAUCAGCAAUAUUACGUAGG : reported self-splicing fitness (ln) = -2.1

Record summary for GUGUAGCAAUAUUACGGGAC : reported self-splicing fitness (ln) = -3.44
